Origin of values: patent US20250230147A1

# TESTED ON: c-Cbl (Homo sapiens (Human))
# TEST METHOD NOTES: C-Cbl LCK Ub TR-FRET assay (c-cbl Lck HTRF)
# Type: biochemical
# RUN PARAMETERS: C-cbl Lck HTRF IC50 relative to Cbl-b Lck HTRF IC50
PARAMETER MEASURED: (fold-selectivity) (x)

MOLECULE: Cn1cnnc1[C@@H](F)[C@@](C)(F)c1cccc(N2Cc3c(cc(CN4CCC5(CC5)C4)cc3C(F)(F)F)C2=O)c1 [Compound 130]
TESTED ON: c-Cbl (Homo sapiens (Human))
(fold-selectivity) [x]: 3.3
//
MOLECULE: COCC1(O)CN(Cc2cc3c(c(C(F)(F)F)c2)CN(c2cccc(C4([C@H](F)c5nncn5C)COC4)c2)C3=O)C1 [Compound 186]
TESTED ON: c-Cbl (Homo sapiens (Human))
(fold-selectivity) [x]: 1.7
//
MOLECULE: CC(C)[C@H]1CN(CCF)CCN1Cc1cc2c(c(C(F)(F)F)c1)CN(c1cccc(C3([C@@H](F)c4nncn4C)COC3)c1)C2=O [Compound 197]
TESTED ON: c-Cbl (Homo sapiens (Human))
(fold-selectivity) [x]: 1.6

[I] Cn1cnnc1[C@H](F)[C@@](C)(F)c1cccc(N2Cc3c(cc(CN4CC(C)(F)C4)cc3C(F)(F)F)C2=O)c1 [Compound 33]
[II] CC(C)[C@H]1CN(C)CCN1Cc1cc2c(c(C(F)(F)F)c1)CN(c1cccc(C3([C@H](F)c4nncn4C)CC(F)(F)C3)c1)C2=O [Compound 190]
For the pair I and II , which entry has the numerically smaller recorded (fold-selectivity)? // respond with label for picked entry
II
(II: 0.82 x, I: 2.1 x)

---

# TESTED ON: c-Cbl (Homo sapiens (Human))
# TEST METHOD NOTES: C-Cbl LCK Ub TR-FRET assay (c-cbl Lck HTRF)
# Assay type: biochemical
# RUN PARAMETERS: C-cbl Lck HTRF IC50 relative to Cbl-b Lck HTRF IC50
PARAMETER MEASURED: (fold-selectivity) (x)

COMPOUND STRUCTURE STRING: Cn1cnnc1[C@H](F)C1(c2cccc(N3Cc4c(cc(CN5CC(S(C)(=O)=O)C5)cc4C(F)(F)F)C3=O)c2)COC1
TESTED ON: c-Cbl (Homo sapiens (Human))
PARAMETER MEASURED: (fold-selectivity)
READING: 1.9
--
COMPOUND STRUCTURE STRING: Cn1cnnc1[C@@H](F)C1(c2cccc(N3Cc4c(cc(CN5CC[C@@H](F)C5)cc4C(F)(F)F)C3=O)c2)COC1
TESTED ON: c-Cbl (Homo sapiens (Human))
PARAMETER MEASURED: (fold-selectivity)
READING: 2.8

[P] CC(C)C1(O)CN(Cc2cc3c(c(C(F)(F)F)c2)CN(c2cccc(C4([C@H](F)c5nncn5C)COC4)c2)C3=O)C1
[Q] Cn1cnnc1[C@H](F)C1(c2cccc(N3Cc4c(cc(CN5CCC[C@@H]5CO)cc4C(F)(F)F)C3=O)c2)COC1
Between the two listed entries P and Q , which has its (fold-selectivity) at the higher number? Please indicate the selected item by its label.
P

---

# TESTED ON: c-Cbl (Homo sapiens (Human), UniProt P22681)
# Sequence (P22681 47-435): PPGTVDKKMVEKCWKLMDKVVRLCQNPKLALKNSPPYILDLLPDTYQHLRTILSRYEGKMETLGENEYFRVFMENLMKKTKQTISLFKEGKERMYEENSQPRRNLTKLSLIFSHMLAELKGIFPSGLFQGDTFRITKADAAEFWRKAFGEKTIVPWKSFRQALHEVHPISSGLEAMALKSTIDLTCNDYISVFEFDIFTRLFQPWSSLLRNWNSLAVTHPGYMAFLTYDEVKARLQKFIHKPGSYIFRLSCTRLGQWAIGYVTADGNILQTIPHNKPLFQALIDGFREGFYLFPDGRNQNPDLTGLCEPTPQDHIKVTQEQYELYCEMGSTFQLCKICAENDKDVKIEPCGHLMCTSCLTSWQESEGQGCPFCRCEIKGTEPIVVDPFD
# TEST METHOD NOTES: C-Cbl LCK Ub TR-FRET assay (c-cbl Lck HTRF)
# Type: biochemical
pIC50: −log10 of the molar value.
PARAMETER MEASURED: pIC50

[A] Cn1cnnc1CC1(c2cccc(N3Cc4c(cc(CNC5(C)COC5)cc4C(F)(F)F)C3=O)c2)CC(F)(F)C1 [Compound 332]
[B] CC(C)[C@@H]1CN(Cc2cc3c(c(C(F)(F)F)c2)CN(c2cccc(C4([C@H](F)c5nncn5C)COC4)c2)C3=O)CCN1 [Compound 93]
[C] Cc1cnn(CC2(c3cccc(N4Cc5c(cc(CN6CCN(C)C[C@@H]6C(C)C)cc5C(F)(F)F)C4=O)c3)COC2)n1 [Compound 256]
Order the entries by their reported pIC50, beginning at the minimum. Your reply should list the labels following the order given in the request.
B, A, C

---

# TESTED ON: Cbl-b (Homo sapiens (Human), UniProt Q13191)
# Sequence (Q13191 40-426): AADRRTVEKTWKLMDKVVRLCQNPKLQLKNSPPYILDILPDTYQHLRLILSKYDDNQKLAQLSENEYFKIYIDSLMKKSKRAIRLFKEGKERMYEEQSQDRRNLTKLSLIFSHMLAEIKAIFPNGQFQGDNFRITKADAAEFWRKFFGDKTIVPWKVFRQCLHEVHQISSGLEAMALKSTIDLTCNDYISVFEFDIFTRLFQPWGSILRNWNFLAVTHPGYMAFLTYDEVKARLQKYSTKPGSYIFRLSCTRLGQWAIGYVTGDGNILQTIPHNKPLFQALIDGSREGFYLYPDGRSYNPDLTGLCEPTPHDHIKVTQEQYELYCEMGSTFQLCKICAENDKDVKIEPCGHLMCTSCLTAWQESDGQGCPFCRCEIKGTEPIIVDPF
# TEST METHOD NOTES: Cbl-b LCK Ub TR-FRET assay (Cbl-b Lck HTRF)
# Type: biochemical
PARAMETER MEASURED: IC50 (nM)

COMPOUND STRUCTURE STRING: Cn1cnnc1[C@@H](F)C1(c2cccc(N3Cc4c(cc(CN5CC6(C5)CS(=O)(=O)C6)cc4C(F)(F)F)C3=O)c2)COC1
IC50 [nM]: 170

[A] COC1(C)CN(Cc2cc3c(c(C(F)(F)F)c2)CN(c2cccc(C4([C@H](F)c5nncn5C)COC4)c2)C3=O)C1
[B] CCSc1cc(C2(Cc3nncn3C)CCC2)cc(N2Cc3c(cc(CNC4(C)CCC4)cc3C(F)(F)F)C2=O)n1
Returns: the label, A or B , whose recorded IC50 is the lower number. Identify your selection by its label.
B
(B: 6.8 nM, A: 220 nM)

---

# TESTED ON: c-Cbl (Homo sapiens (Human))
# TEST METHOD NOTES: C-Cbl LCK Ub TR-FRET assay (c-cbl Lck HTRF)
# Assay type: biochemical
# RUN PARAMETERS: C-cbl Lck HTRF IC50 relative to Cbl-b Lck HTRF IC50
PARAMETER MEASURED: (fold-selectivity)

COMPOUND: Cn1cnnc1C[C@]1(c2cccc(N3Cc4c(cccc4C(F)(F)F)C3=O)c2)C[C@@H](F)C1
(fold-selectivity): 2.0x
//
COMPOUND: CC(C)[C@@H]1CNCCN1Cc1cc2c(c(C(F)(F)F)c1)CN(c1cccc(C3([C@H](F)c4nncn4C)COC3)c1)C2=O
(fold-selectivity): 1.5x
//
COMPOUND: CN1CCN(Cc2cc3c(c(C(F)(F)F)c2)CN(c2cccc(C4(Cc5nncn5C)CC(F)(F)C4)c2)C3=O)C(=O)C1
(fold-selectivity): (1.1x)
//
COMPOUND: Cn1cnnc1CC1(c2cc(NC3CCC(F)(F)C3)nc(N3Cc4c(cccc4C(F)(F)F)C3=O)c2)COC1 (stereo not drawn)
(fold-selectivity): (12x)
//
COMPOUND: Cn1cnnc1[C@H](F)C1(c2cccc(N3Cc4c(cc(CN)cc4C(F)(F)F)C3=O)c2)COC1
(fold-selectivity): 1.3x
//
COMPOUND: C[C@H](N)c1cc2c(c(C(F)(F)F)c1)CN(c1cccc(C3([C@@H](F)c4nncn4C)COC3)c1)C2=O
(fold-selectivity): 1.6x
//
COMPOUND: CC(C)[C@H]1CNCCN1Cc1cc2c(c(C(F)(F)F)c1)CN(c1cccc(C3([C@H](F)c4nncn4C)COC3)c1)C2=O
(fold-selectivity): 1.9x
//
COMPOUND: Cn1cc(-c2cc(C3(Cc4nncn4C)CCC3)cc(N3Cc4c(cc(CNC5(C)CCC5)cc4C(F)(F)F)C3=O)n2)cn1
(fold-selectivity): (1.0x)
//
COMPOUND: Cc1cccc2c1CN(c1cccc(C3([C@@H](F)c4nncn4C)COC3)c1)C2=O
(fold-selectivity): 1.5x
//
COMPOUND: Cn1cnnc1[C@H](F)C1(c2cccc(N3Cc4c(cc(CNC5(C)CCC5)cc4C(F)(F)F)C3=O)c2)CC(F)(F)C1
(fold-selectivity): (1.0x)

GET (fold-selectivity) where system = c-Cbl (Homo sapiens (Human)) and item = `Cn1cnnc1[C@H](F)C1(c2cccc(N3Cc4c(cc(CN5CCC5)cc4C(F)(F)F)C3=O)c2)COC1`
1.9x

Specify (fold-selectivity) for `Cn1cnnc1[C@@H](F)C1(c2cccc(N3Cc4c(cc(CNCCCF)cc4C(F)(F)F)C3=O)c2)CC(F)(F)C1` , system c-Cbl (Homo sapiens (Human)).
(1.1x)

Give (fold-selectivity); test system c-Cbl (Homo sapiens (Human)); compound `CC(C)[C@H]1CN(CCF)CCN1Cc1cc2c(c(C(F)(F)F)c1)CN(c1cccc(C3([C@H](F)c4nncn4C)COC3)c1)C2=O`
1.5x

State (fold-selectivity) (c-Cbl (Homo sapiens (Human))) of `Cn1cnnc1CC1(c2cc(N[C@H]3CC[C@@H](N)CC3)nc(N3Cc4c(cc(CNC5(C)CCC5)cc4C(F)(F)F)C3=O)c2)CCC1` .
(1.2x)

Supply (fold-selectivity) measured with c-Cbl (Homo sapiens (Human)) for `Cn1cnnc1CC1(c2cc(NCC(F)(F)CO)nc(N3Cc4c(cc(CNC5(C)CCC5)cc4C(F)(F)F)C3=O)c2)CCC1` .
(1.2x)

---

# TESTED ON: c-Cbl (Homo sapiens (Human), UniProt P22681)
# TEST METHOD NOTES: C-Cbl LCK Ub TR-FRET assay (c-cbl Lck HTRF)
# Type: biochemical
PARAMETER MEASURED: IC50 (nM)

[a] Cn1cnnc1CC1(c2cc(-c3ccc4ccccc4c3)nc(N3Cc4c(cc(CNC5(C)CCC5)cc4C(F)(F)F)C3=O)c2)CCC1 [Compound 350]
[b] Cn1cnnc1[C@H](F)C1(c2cccc(N3Cc4c(cc(CN5CCC(C)(O)CC5)cc4C(F)(F)F)C3=O)c2)COC1 [Compound 141]
[c] Cn1cc(CNc2cc(C3(Cc4nncn4C)CCC3)cc(N3Cc4c(cc(CNC5(C)CCC5)cc4C(F)(F)F)C3=O)n2)cn1 [Compound 313]
List these items ordered by IC50, big to small. Kindly provide the labels arranged according to the requested ordering.
b, c, a
(b: 120 nM, c: 23 nM, a: 16 nM)
